# Test system: LXFL 529
# ASSAY EXPLANATION: NCI tumour cell line growth inhibition, 48 h
Active and inactive are the calls of the source. Cut-off read from the data, not from the text of the source: active = GI50 up to about 1.1 µM and inactive = higher.
Classes used: active, inactive

[[record]]
compound = "CC(=O)NC1C(OCc2ccccc2)OC(COC(=O)CCCCCCCCCCNc2ccc([N+](=O)[O-])c3[nH]c4ccccc4c(=O)c23)C(O)C1OC(C)C(=O)NC(C)C(=O)NC(CCC(N)=O)C(=O)OCc1ccccc1 (stereo unspecified)"
label_class = "inactive"

[[record]]
compound = "COc1ccc(N2C(=O)[C@@H]3[C@H](C2=O)c2[nH]c4ccccc4c2C2CCC(C(C)(C)C)C[C@@H]23)cc1 (stereo partly specified)"
label_class = "inactive"

[[record]]
compound = "Cc1cc2c(C(C)C)c(O)c(O)c(C=O)c2c(O)c1-c1c(C)cc2c(C(C)C)c(O)c(O)c(C=O)c2c1O [GOSSYPOL]"
label_class = "inactive"

[[record]]
compound = "S=c1nc(N2CCCCC2)ss1"
label_class = "inactive"

[[record]]
compound = "CC(=O)NNc1nc(C)c(C(/C=C/c2ccc(Cl)cc2)=N\\NS(=O)(=O)c2ccc(C)cc2)s1"
label_class = "inactive"

[[record]]
compound = "Clc1cc2nsnc2c(Cl)n1"
label_class = "inactive"

[[record]]
compound = "Cc1ccc(Oc2ccc(C(=O)c3cccc(C(=O)c4ccc(Oc5ccc(C)cc5)cc4)n3)cc2)cc1"
label_class = "inactive"

[[record]]
compound = "Sc1ccccc1S"
label_class = "inactive"

[[record]]
compound = "CCCCCCCC(=O)OCC1OC(n2cc(F)c(=O)[nH]c2=O)C(N)C(O)C1O (stereo unspecified)"
label_class = "inactive"

[[record]]
compound = "CC1=C(C(=O)NCc2ccccc2)C(c2ccco2)C(C(=O)NCc2ccccc2)=C(C)N1"
label_class = "inactive"

[[record]]
compound = "CCN(CC)CCCNc1ncc(C)c2c1c1ccc3c(O)cccc3c1n2C"
label_class = "inactive"

[[record]]
compound = "CC(=O)O[C@H]1CCC2[C@@H]3CCC4=C(O)C(=O)C(C#N)C[C@]4(C)C3CC[C@@]21C (stereo partly specified)"
label_class = "inactive"

[[record]]
compound = "N#CC1C(=O)C(=O)N(c2ccccc2)C1=O (stereo unspecified)"
label_class = "inactive"

[[record]]
compound = "C=CC1(C)CCC2=C(CCC3C(C)(C(=O)OC)CCCC23C)C1=O (stereo unspecified)"
label_class = "inactive"

[[record]]
compound = "CC(CN1CCN(CC(C)Nc2ccnc3cc(Cl)ccc23)CC1)Nc1ccnc2cc(Cl)ccc12 (stereo unspecified)"
label_class = "inactive"

[[record]]
compound = "Clc1ccccc1C(n1ncc2ccccc21)n1ncc2ccccc21"
label_class = "inactive"

[[record]]
compound = "COc1ccc(C(c2ccc(C(C)C)cc(=O)c2O)c2ccc3cccnc3c2O)cc1 (stereo unspecified)"
label_class = "active"

[[record]]
compound = "COC(=O)c1sc(=O)n(-c2ccccc2)c1SCc1ccccc1"
label_class = "inactive"

[[record]]
compound = "Cc1c2cc[n+](C)cc2c(C)c2c1[nH]c1ccc(OC(C)(C)C)cc12"
label_class = "inactive"

[[record]]
compound = "O=[N+]([O-])c1ccc(C(Cl)C(Cl)c2ccc(C(Cl)C(Cl)c3ccc([N+](=O)[O-])cc3[N+](=O)[O-])cc2)c([N+](=O)[O-])c1 (stereo unspecified)"
label_class = "active"

[[record]]
compound = "CC1=C(C(=O)O)N2C(=O)[C@@H](NC(=O)C(c3ccc(O)cc3)N3CSC(=S)N(C(C)C)C3)C2SC1 (stereo partly specified)"
label_class = "inactive"

